# target_of_assay: T1, AAV8 (adeno-associated virus serotype 8)
# T1 construct: also called adeno-associated virus serotype 8
# assay_remarks: SPR, AAV on CM5 chip;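 note: surface plasmon resonance with AAV amine-coupled to the chip as ligand, nanobodies injected as analyte over a concentration series, rate constants and affinity fitted from binding curves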
readout_label: kon (M⁻¹ s⁻¹)
Lab book: enter the figure in M⁻¹ s⁻¹, no units written.

Solved cases below.
[[record]]
binder = "A4-114 (VHH) VHH: VQLQESGGGLVQTGGSLRLSCVASGSIFSINTVGWYRQAPGKQRELVATVTRAGSTWYAGSVKGRFTISRDNTKNTIYLQMNSLRPEDTAVYYCHVDELRQSTWTTSNLWGQGTQVTVSS"
unit_descriptor = "M⁻¹ s⁻¹"
endpoint_result = 94000

[[record]]
binder = "A4-113 (VHH) VHH: VQLQESGGGLVQTGGSLRLSCVASGSRFSINTVGWYRQAPGKQRELVATVTRGGSTWYAGSVKGRFTISRDNTKNTIYLQMNSLRPEDTAVYYCHVDEIRQSTWTTSNLWGQGTQVTVSS"
unit_descriptor = "M⁻¹ s⁻¹"
endpoint_result = 6150

[[record]]
binder = "A4-104 (VHH) VHH: VQLQESGGGLVQPGGSLRLSCAASGSIFSLNSMGWYRQAPGKQRELVATITSGGSTNYAGSVKGRFTISRDNAKNTVYLQMNNLQPEDTAVYYCHVDEVRESSWTTSNLWGQGTQVTVSS"
unit_descriptor = "M⁻¹ s⁻¹"
endpoint_result = 2860


## Input Looking for the measured kon of A4-106 (VHH) VHH: VQLQESGGGLVQPGGSLRLSCIASGSIFSLNAMGWYRQAPGKQRELVATITSGGSTNYADSVKGRFTISRDNAKNTAYLQMNNLQPEDTAVYYCHVDEVRESIWTTSNLWGQGTQVTVSS , can you help?
## Output 120000

Attribution: patent US20260193326A1
